Taken from ChEMBL document CHEMBL1136428.

Tested on: Plasmodium falciparum
assay-text: Anti-malarial activity against Plasmodium falciparum Dd2
Format: functional, organism-based
pIC50: −log10 of the molar value.
measurement-type: pIC50

Look over these answered cases.
# input-smiles, measurement-type, experimental-value
data = [
    ("O=C(/C=C/c1ccc(-c2ccc([N+](=O)[O-])cc2)o1)Nc1ccc(NC(=O)CCc2ccc(Cl)cc2)c(C(=O)c2ccccc2)c1", "pIC50", 6.89),
    ("O=C(/C=C/c1ccc(-c2ccc([N+](=O)[O-])cc2)o1)Nc1ccc(NC(=O)CCc2ccc(F)cc2)c(C(=O)c2ccccc2)c1", "pIC50", 6.36),
    ("O=C(/C=C/c1ccc(-c2ccc([N+](=O)[O-])cc2)o1)Nc1ccc(NC(=O)CCc2ccccc2)c(C(=O)c2ccccc2)c1", "pIC50", 6.51),
    ("O=C(/C=C/c1ccc(-c2ccc([N+](=O)[O-])cc2)o1)Nc1ccc(NC(=O)CCc2ccc(Br)cc2)c(C(=O)c2ccccc2)c1", "pIC50", 6.77),
    ("Cc1ccc(CCC(=O)Nc2ccc(NC(=O)/C=C/c3ccc(-c4ccc([N+](=O)[O-])cc4)o3)cc2C(=O)c2ccccc2)cc1", "pIC50", 6.36),
]

A: CC(C)(C)OC(=O)N[C@@H](Cc1ccccc1)C(=O)Nc1ccc(NC(=O)/C=C/c2ccc(-c3ccc([N+](=O)[O-])cc3)o2)cc1C(=O)c1ccccc1
B: COc1ccc(CCC(=O)Nc2ccc(NC(=O)/C=C/c3ccc(-c4ccc([N+](=O)[O-])cc4)o3)cc2C(=O)c2ccccc2)cc1
C: O=C(/C=C/c1ccc(-c2ccc([N+](=O)[O-])cc2)o1)Nc1ccc(NC(=O)CCc2ccc(O)cc2)c(C(=O)c2ccccc2)c1
Query: Thanks in advance: please rank these 3 entries by pIC50, highest to lowest. List the labels, following the order given in the request.
Result: A, B, C
(A: 6.38, B: 5.89, C: 5.48)

###

Tested on: Plasmodium falciparum
assay-text: Anti-malarial activity against Plasmodium falciparum Dd2
Format: functional, organism-based
measurement-type: IC50 (nM)

# compound, IC50 / nM
measured = [
    ("N[C@@H](Cc1ccccc1)C(=O)Nc1ccc(NC(=O)/C=C/c2ccc(-c3ccc([N+](=O)[O-])cc3)o2)cc1C(=O)c1ccccc1", 580),
    ("CC(C)(C)OC(=O)N[C@H](Cc1ccccc1)C(=O)Nc1ccc(NC(=O)/C=C/c2ccc(-c3ccc([N+](=O)[O-])cc3)o2)cc1C(=O)c1ccccc1", 900),
    ("NC(Cc1ccc(C(F)(F)F)cc1)C(=O)Nc1ccc(NC(=O)/C=C/c2ccc(-c3ccc([N+](=O)[O-])cc3)o2)cc1C(=O)c1ccccc1 (stereo not drawn)", 710),
]
